These measurements were taken from PubChem BioAssay (NCI).

# Tested on: BT-549 breast
# TEST_NAME: NCI-60 one-dose screen, 48 h (100 = growth as untreated, 0 = no growth, -100 = all killed)
# EXPERIMENTAL_SETUP: 10 µM unless noted
About 83,000 compounds went through this panel and 20% of them were active in at least one assay; those are over-represented in the sample as a whole.
ATTRIBUTE_MEASURED: growth (%)
Your answer should be a plain number; it is taken to be in %.

**Query** I am curious: what growth value has been reported for "COc1ccccc1/C=C1\Oc2cc(OCCN3CCCC3)ccc2C1=O" ?
**Result** 84.2

**Query** I'd like to know its growth. The compound in question is "Cc1ccc(CNc2c3ccccc3nc3cc(NC(=O)CCN4CCCC4)ccc23)cc1"
**Result** 35.3

**Query** growth for "O=C(NNc1nc2c(F)cccc2n2cccc12)c1cnccn1" ?
**Result** 38

**Query** Dear colleague, I am looking for the recorded growth of the following compound: "CCc1ccc(-c2cn3ccnc3c(-c3ccc4ncn(Cc5ccccc5)c4c3)n2)cc1"
**Result** 84.1

====

# Tested on: OVCAR-8 ovarian
# TEST_NAME: NCI-60 one-dose screen, 48 h (100 = growth as untreated, 0 = no growth, -100 = all killed)
# EXPERIMENTAL_SETUP: 10 µM unless noted
Compounds without any hit were thinned out: in the full panel of roughly 83,000, 20% have a hit.
ATTRIBUTE_MEASURED: growth (%)
// return numeric value only (unit: %, not printed)

**Query** # query: growth of entry "Cc1ccc(/C=C(/C#N)n2nnc3cccc(F)c32)cc1"
**Result** 8.47

**Query** Could you share which growth value was measured for "COc1cc2nc(-c3ccc(C(F)(F)F)cc3)cc(OCCN3CCCCC3)c2cc1OC" ?
**Result** 78.2

**Query** // returns reported growth for input Cc1ccc(C(=O)/C(=C\c2ccc([N+](=O)[O-])cc2)S(=O)Cc2ccc(F)cc2)cc1 (stereo not drawn)
**Result** 12.5

**Query** For "COc1ccc(C(=O)CC#N)cc1" , what is its reported growth?
**Result** 103

**Query** Which growth is reported for this compound? CC(Oc1ccc(C(=O)O)cc1C(F)(F)F)c1ccc(Oc2ccccc2)cn1 (stereo not drawn)
**Result** 96.6

**Query** So what's the measured growth for this one? "CCN1Cc2nc3sc(C)c(C)c3c(=O)n2C=C1C"
**Result** 38.1

**Query** Record request: growth value, item "NC(=O)CSSCC(N)=O"
**Result** 101

**Query** Given the compound "CCCCNC(=O)Oc1ccc(/C(=C(\C)c2ccccc2)c2ccc(OCCN3CCCCC3)cc2)cc1" , what is its reported growth?
**Result** 71.9

**Query** Give the measured growth of "CCOC(=O)c1cc(C(=O)c2ccc(OC)c(OC)c2)n2ccc(/C=C/c3cc[n+](CC(=O)c4ccc(OC)c(OC)c4)cc3)cc12" .
**Result** 95.5

**Query** Suppose we examine the compound "CCCOC(=O)N[C@H]1CCc2c(Cl)c(OC)c(OC)c(OC)c2-c2ccc(SC)c(=O)cc21" ; what growth value has been reported?
**Result** 21.6

**Query** Reported growth, compound "COc1ccc(/C=C/c2nc(Nc3ccc(S(=O)(=O)Nc4nc(C)cc(C)n4)cc3)c3ccccc3n2)cc1" : ____
**Result** 66.1

**Query** Need growth of O=[N+]([O-])CC(c1ccccc1)c1c[nH]c2ccccc12 (stereo not drawn) , thanks.
**Result** 52.7

**Query** So what's the measured growth for this one? "CCc1c(Cl)nc(N)nc1Nc1ccc(C)c(C)c1"
**Result** 102

**Query** Requested field: growth. Item: CCN(CC)CCCC(C)Nc1cc(O)cc2cccnc12 (stereo not drawn)
**Result** 101

**Query** Field request: growth | item: "COc1ccc(/C=C2\Oc3cc(OCCCCCN4CCCCC4)ccc3C2=O)cc1OC"
**Result** 83.3

**Query** Any idea what its growth is? The compound is "Brc1ccc2[nH]cc(-c3cncn3CCc3ccccc3)c2c1"
**Result** 66.9

**Query** Need growth of "COc1ccc(C(=O)Cn2c(C(=O)c3ccccc3)nc3ccccc32)cc1" , thanks.
**Result** 49.3

**Query** Would you kindly share the measured growth for "O=S(=O)(NCCCNc1nccc(-c2c(-c3cccc(F)c3)nc3sccn23)n1)c1cccc(F)c1" ?
**Result** 18.4

====

# Tested on: HCT-116 colon
# TEST_NAME: NCI-60 one-dose screen, 48 h
# EXPERIMENTAL_SETUP: 10 µM unless noted
Compounds without any hit were thinned out: in the full panel of roughly 83,000, 20% have a hit. Active and inactive are the calls of the source. The calls were made as follows: active = growth percent below 10; inactive = the rest.
Valid outcomes are listed here; reply with one: true (active), false (inactive)

**Query** # lookup: test call for "CC1(C)CC[C@]2(C(=O)O)CC[C@]3(C)C(=CC[C@@H]4[C@@]5(C)Cc6c([nH]c7ccccc67)C(C)(C)[C@@H]5CC[C@]43C)[C@@H]2C1"
**Result** true

**Query** Field: outcome | Entry: "O=C1Nc2cc(-c3ccc(NC(=O)c4ccccc4)cc3)ccc2/C1=C/c1ccc[nH]1"
**Result** false

**Query** Which result was noted for this compound in the test: "COc1cc2oc(-c3cccc(C(=O)Nc4ccccc4)c3)cc(=O)c2c(O)c1OC"
**Result** false

====

# System: PC-3 prostate
# TEST_NAME: NCI-60 one-dose screen, 48 h (100 = growth as untreated, 0 = no growth, -100 = all killed)
# EXPERIMENTAL_SETUP: 10 µM unless noted
Compounds without any hit were thinned out: in the full panel of roughly 83,000, 20% have a hit.
ATTRIBUTE_MEASURED: growth (%)
Your answer is read as %, so omit the unit and give the number.

**Query** Given the compound "Nc1nc(Nc2ccccc2SSc2ccccc2Nc2nc(N)nc(-c3cccs3)n2)nc(-c2ccsc2)n1" , what is its reported growth?
**Result** 57.2

**Query** // lookup growth for "COc1ccc(C/C(=C(\C)c2ccc(OCCN3CCCC3)cc2)c2ccc(OCCN3CCCC3)cc2)cc1"
**Result** 50.9

**Query** So what's the measured growth for this one? CC(C)(C)[Si](C)(C)OC1[C@@H](O[Si](C)(C)C(C)(C)C)[C@@H](CNC(=O)NC(=O)CCl)O[C@H]1n1cnc2c(NC(=O)Nc3ccccc3)ncnc21 (stereo partly specified)
**Result** -36.2

**Query** Entry under review: "COc1cc2nc(-c3ccc(Cl)cc3)cc(OCCCN3CCCC3)c2cc1OC" . Reported growth?
**Result** 41.9

**Query** Consider the compound shown here: "COc1cc2c(=O)n(CCN(C)C)c3c4cc5c(cc4ccc3c2cc1OC)OCO5" What is its recorded growth?
**Result** 7.26

**Query** What value of growth has been reported for the following compound? "COc1ccc(CC(C)=C(c2ccc(OCCN3CCCCCC3)cc2)c2ccc(OCCN3CCCCCC3)cc2)cc1"
**Result** -87.2

**Query** Given "COc1ccc(/C=C/C(=O)Nc2cc(/C=C\c3cc(OC)c(OC)c(OC)c3)cc(OC)c2OC)cc1OC" , state its recorded growth.
**Result** 20.7

**Query** Bench note: what growth did "C=C(C)[C@@H]1CC[C@]2(C(=O)N3CCN(C)CC3)CC[C@]3(C)[C@H](CC[C@@H]4[C@@]5(C)C/C(=C/c6cccnc6)C(=O)C(C)(C)[C@@H]5CC[C@]43C)[C@@H]12" show?
**Result** 18.6

**Query** Consider the compound shown here: "[O-][n+]1c(Cl)cc(Cl)c2ccccc21" What is its recorded growth?
**Result** 81.2

**Query** Quick one: growth of "NNC(=O)c1ccc(-n2nc(-c3ccccc3)c3ccccc32)cc1" ?
**Result** 69.4

**Query** Quick check: growth of "COc1ccc(-c2cnc3c(-c4cccc5cnccc45)cnn3c2)cc1" ?
**Result** 50.6

====

For each of the compounds below, state its growth.
# Test system: IGROV1 ovarian
# TEST_NAME: NCI-60 one-dose screen, 48 h (100 = growth as untreated, 0 = no growth, -100 = all killed)
# EXPERIMENTAL_SETUP: 10 µM unless noted
The panel holds about 83,000 compounds, 20% with a hit somewhere; the sample as a whole holds those more often.
All answers are understood in %, so give the number only.

**Query** For the compound shown here, "C=C(C)[C@@H]1CC[C@]2(C(=O)N3CCN(C)CC3)CC[C@]3(C)[C@H](CC[C@@H]4[C@@]5(C)C/C(=C/c6cccnc6)C(=O)C(C)(C)[C@@H]5CC[C@]43C)[C@@H]12" , give the reported growth.
**Result** 96

**Query** Name the recorded growth for "CC(C)(C)c1ccc(NS(=O)(=O)c2ccc3nc(NC(=O)c4cnccn4)[nH]c3c2)cc1" .
**Result** 37.4

**Query** Which growth reading was recorded for the compound "O=S(=O)(NCCNc1nccc(-c2c(-c3cccc(O)c3)nc3occn23)n1)c1ccccc1" ?
**Result** 47.8

**Query** Please report the recorded growth for "CCN1Cc2nc3sc(C)c(C)c3c(=O)n2C=C1C" .
**Result** 30.1

**Query** Requested field: growth. Item: "O=C(CCN1CCCC1)Nc1ccc2c(NCCCc3ccccc3)c3ccccc3nc2c1"
**Result** 11.7

**Query** Record request: growth value, item CCCCC/C=C/C(C)=C/C1CC(C)C/C=C/CCC(O)C(OC(N)=O)CCC(C)CC(O)C(C)C(=O)O1 (stereo unspecified)
**Result** 87.3

**Query** What does the record list as growth for "Nc1c(S(=O)(=O)O)cc2c3c(cccc13)C(=O)OC2=O" ?
**Result** 63.7

**Query** If you can, please state the reported growth value of "Cc1cc2nc3c4cccc(O)c4n(CCN(C)C)c3nc2cc1C" .
**Result** 19.1

**Query** Entry "Cn1ccnc1C(=O)/C=C/c1ccc(CC(=O)Nc2ccc(Cl)cc2)cc1" : reported growth = ?
**Result** 13

**Query** # input compound: O=C(/C(=C\c1ccc([N+](=O)[O-])cc1)S(=O)Cc1ccc(F)cc1)c1ccc(F)cc1 (stereo unspecified) ; wanted: its growth
**Result** -19.1

**Query** State the recorded growth for this entry: "COc1ccc(-c2nc([C@@H](C)Sc3nc(N)cc(N)n3)c(C)s2)cc1OCCN1CCOCC1"
**Result** 123
